Data provenance: a melting point compilation (Tetko et al.; mined from patent text by program, amines drawn as free bases though some values may be those of a salt)

Reported melting point values for a set of compounds

Previously resolved entries follow.
{"columns": ["Given Smiles", "Measure", "Result Value"],
 "data": [
  ["CCOC(=O)Nc1ccc(Br)cc1F", "melting point", "72 to 73 °C"],
  ["NCCOc1cc(Cl)cc([N+](=O)[O-])c1N", "melting point", "156 to 157 °C"],
  ["O=Cc1cc2ccc3ccsc3c2c2ccccc12", "melting point", "173 to 177 °C"],
  ["NC(Cc1coc2c(Cl)cccc12)=NO", "melting point", "142 to 145 °C"],
  ["O=C(O)c1cc(-c2ccncn2)c[nH]c1=O", "melting point", "> 250 °C"]
]}

// moving on: another record for melting point
Return reported melting point; argument: "O=C(Nc1cc(CO)cc(Nc2c3ccccc3nc3ccccc23)c1)Oc1ccc(N(CCCl)CCCl)cc1"
241 to 242 °C

----------
Reported melting point values for a set of compounds

Previously resolved entries follow.
{"columns": ["Compound", "melting point"],
 "data": [
  ["CCN(CC)C(=O)c1ccc2ccccc2c1-c1ccccc1", "121 to 122 °C"],
  ["COc1ccc([C@@H]2Sc3cc(Cc4ccc(F)cc4)ccc3N(CCN(C)C)C(=O)[C@@H]2OC(C)=O)cc1", "154 to 156 °C"],
  ["CC(C)(C)c1cc(C(C)(C)C)c2oc(N)c(-c3ccccc3)c2c1", "174 to 178 °C"]
]}

Return reported melting point; argument: COCC1CN(c2ccc(C3CCCCC3)cc2)C(=O)O1 (racemic)
86 to 88 °C

Return reported melting point; argument: "O=C(CO)Cc1ccc(Cl)cc1"
53.5 °C

Return reported melting point; argument: "CC1(C)CC(=O)C2=C(C1)NC1=C(C(=O)CC(C)(C)C1)C2c1ccc2c(c1)OCCO2"
> 300 °C

Return reported melting point; argument: CC1CCN(c2cc(C(C)(C)C)ns2)C1=O (configuration not stated)
111 to 113 °C

Return reported melting point; argument: "COc1nc(C)nc(NC(=O)NS(=O)(=O)c2cccnc2OCC2CC2)n1"
165 to 167 °C

Return reported melting point; argument: "O=C1c2ccccc2-n2cncc2[C@@H]2CCN12"
195 to 197 °C

Return reported melting point; argument: Nc1nc(C(F)(F)F)c(CN2C(=O)C3(COc4cc5c(cc43)OCO5)c3ccccc32)s1 (configuration not stated)
165 to 167 °C

Return reported melting point; argument: "CCC[C@H]1CC[C@H](c2ncc(C(=O)O)cn2)CC1"
184 to 186 °C

Return reported melting point; argument: CCC1(C)SC(=NOC(=O)N(C)C(C)=O)N=C1C (configuration not stated)
98 to 101 °C

Return reported melting point; argument: "O=C1c2ccccc2C(=O)N1Cc1cnc(Cl)s1"
108 to 109 °C

----------
Measure: melting point

Previously resolved entries follow.
{"columns": ["Compound", "melting point"],
 "data": [
  ["Cc1ccc(-c2noc(CC(F)=C(F)F)n2)cc1", "46 to 50 °C"],
  ["C=CCN1Cc2nc3c(cnn3CCC#CC)c(N)c2C1=O", "192 to 194 °C"],
  ["O=C(Cn1cnc2ccccc21)Nc1ccc(-n2nc(C3CC3)cc2C2CC2)cc1", "230 to 235 °C"],
  ["CC(=O)Nc1ccc(C(=O)C=CC(=O)O)cc1", "206 to 207 °C"]
]}

// moving on: another record for melting point
Return reported melting point; argument: "Cc1csc(-c2ccc3c(c2)c2cc(-c4ccc(Cl)cc4Cl)c(=O)n(C)c2n3C)n1"
255 to 257 °C

----------
Measure: melting point

Previously resolved entries follow.
{"columns": ["Compound", "melting point"],
 "data": [
  ["CCC(=O)N(OC(=O)NC)C(=O)NC", "90.5 to 92.5 °C"],
  ["CC(C)(O/N=C(\\C(=O)N[C@@H]1C(=O)N[C@@H]1COC(=O)NC(=O)CCl)c1csc(NC(=O)CCl)n1)C(=O)OCc1ccc([N+](=O)[O-])cc1 (relative stereo)", "206 to 209 °C"],
  ["O=C(NCc1ccccn1)c1cc(C(F)(F)F)cc(C(F)(F)F)c1", "123 to 124 °C"],
  ["COc1ccc(Cn2c(=O)ccc3c(C)nc(N4CCC[C@H]4CO)nc32)cc1Cl", "152 to 153 °C"],
  ["COc1cc(O)c2c(=O)c3c(oc2c1)oc1cc(O)ccc13", "265 to 268 °C"],
  ["COC(=O)Cc1cc(Br)c(Sc2ccc(O)c(Cc3ccc(Cl)nn3)c2)c(Br)c1", "133 to 135 °C"]
]}

Return reported melting point; argument: "O=C1c2c(Cl)cccc2-n2cnc(I)c2[C@@H]2CCCN12"
298 to 300 °C

Return reported melting point; argument: "Oc1ccccc1CNCc1cccc(CNCc2ccccc2O)c1"
61 to 63 °C

Return reported melting point; argument: "Cc1ccc(Cl)c(C)c1Nn1cc(C#N)c(=O)[nH]c1=O"
> 320 °C

----------
Measure: melting point

Previously resolved entries follow.
{"columns": ["Compound", "Result Value"],
 "data": [
  ["CCCCCCc1ccc(-c2c(C#N)nn(C(C)(C)Cc3ccc(C)cc3)c2O)cc1", "140 to 142 °C"],
  ["CCOC(=O)c1c(NCc2ccccc2)nc2ccc(Br)cc2c1Cl", "163 to 165 °C"]
]}

Return reported melting point; argument: "Cc1cc(SCc2cccc3cn(-c4ccc(C(F)(F)F)cc4)nc23)ccc1OCC(=O)O"
79 to 81 °C

Return reported melting point; argument: "BrCc1ccccc1Oc1ccc(Br)cc1"
56 to 58 °C

Return reported melting point; argument: "C=C(Cl)C(=O)Nc1ccc(Cl)cc1"
105 to 106 °C

Return reported melting point; argument: "CCOC(=O)c1cnc2c(OC)csc2c1Cl"
135 to 137 °C

Return reported melting point; argument: "N#CC1=CC(CF)(CF)Oc2ccc([N+](=O)[O-])cc21"
136 to 137 °C

Return reported melting point; argument: "CN1Cc2c(C(=O)OCC3CC3)ncn2-c2cccc(Cl)c2C1=O"
194 to 195 °C

Return reported melting point; argument: "COc1ccc(CN(CCN(C)C)c2ccc(C(=O)O)cn2)cc1"
188 to 190 °C

Return reported melting point; argument: "Cc1cc(C)n(-c2nc(Nc3ccc(C(F)(F)F)cc3)c3ccccc3n2)n1"
219 to 220 °C

----------
Measure: melting point

{"columns": ["Compound", "melting point"],
 "data": [
  ["CCN(c1nc(C)cc(C(=O)N2CCN(C)CC2)n1)c1ccc(C(C)C)cc1Br", "81 to 82 °C"],
  ["CCN(c1ccc(C(=O)O)nn1)C(C)c1cc(Br)ccc1OCc1ccccc1 (centres undefined)", "129 °C"],
  ["CC(C)CN1c2ccccc2C(C)(C)C12C=Nc1cc(-c3ccc(N4CCCC4)cc3)c3ccccc3c1O2 (centres undefined)", "242 to 245 °C"],
  ["O=C1CCCN1CCCNCc1ccc(-c2cc3ncnc(Nc4ccc5[nH]ccc5c4)c3s2)cc1", "139 to 146 °C"]
]}

Return reported melting point; argument: "Cc1oc(-c2ccccc2)nc1CCOc1ccc(NC(=O)C(=O)O)cc1"
196 to 198 °C

Return reported melting point; argument: "c1cc2c3c(cccc3c1)C(NCCCCCCCn1ccnc1)=N2"
48 to 50 °C

Return reported melting point; argument: CNC(=O)c1cc2c(nc(C)n2C)c2c1CCC(OC)(c1ccccc1)O2 (centres undefined)
237 to 239 °C

Return reported melting point; argument: CC(=O)N1C(=O)C(C(=O)c2ccco2)c2ccccc21 (centres undefined)
138 °C

Return reported melting point; argument: "Cn1cc(-c2cccc(N3Cc4cc(C(C)(C)C)ccc4C3=O)c2CO)nc(Nc2cccnc2)c1=O"
149 to 150 °C

----------
Measure: melting point

Previously resolved entries follow.
{"columns": ["Compound", "melting point"],
 "data": [
  ["CCCCc1ncc(-c2cccc(C(=O)O)c2)n1Cc1ccccc1Cl", "200 to 202 °C"],
  ["CN1CC(C(=O)CN2CCOCC2)CC2c3cccc4[nH]cc(c34)CC21 (centres undefined)", "178 to 180 °C"],
  ["c1cc(-c2cc3nccnc3[nH]2)ccn1", "324 to 326 °C"],
  ["NN1C(=O)C(C(=O)C(Cc2ccc3ccccc3c2)NC(=O)OCc2ccccc2)C1Oc1ccccc1 (centres undefined)", "205 to 206 °C"],
  ["CCOC(=O)CCCCCOC1OC(COC(C)=O)C(OC(C)=O)C(OC(C)=O)C1NC(C)=O (centres undefined)", "101 to 102 °C"]
]}

Return reported melting point; argument: COc1ccc(C(Cc2ccc(C(N)=O)cc2)c2ccccc2)cc1OC1CCCC1 (centres undefined)
73 to 75 °C

Return reported melting point; argument: "CCOC(=O)c1cn2c3c(c(-c4cc(C)nc(C)c4)c(F)c(F)c3c1=O)OC[C@@H]2C"
295 to 297 °C

Return reported melting point; argument: CCOC(=O)C(Oc1ccc(Cl)cc1)c1ccc(Oc2ccc(Cl)cc2)cc1 (centres undefined)
52.5 to 54 °C

Return reported melting point; argument: "O=C=Nc1ccc(OCC(=O)OCCOC(=O)COc2ccc(N=C=O)cc2)cc1"
96 to 98 °C
